This collection of values is drawn from PubChem BioAssay AID1563.

biological target: Sphingosine 1-phosphate receptor 1 (Homo sapiens) (UniProt P21453); test: activation of human S1P1 receptor – cell-based, counter-screen for S1P4 agonist project (AID 1563); details: S1P1 agonist cell-based assay, at 4.98 µM, stronger effect = higher value;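 further: 0% = vehicle wells and 100% = reference agonist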
Sequence (P21453 whole entry, looked up): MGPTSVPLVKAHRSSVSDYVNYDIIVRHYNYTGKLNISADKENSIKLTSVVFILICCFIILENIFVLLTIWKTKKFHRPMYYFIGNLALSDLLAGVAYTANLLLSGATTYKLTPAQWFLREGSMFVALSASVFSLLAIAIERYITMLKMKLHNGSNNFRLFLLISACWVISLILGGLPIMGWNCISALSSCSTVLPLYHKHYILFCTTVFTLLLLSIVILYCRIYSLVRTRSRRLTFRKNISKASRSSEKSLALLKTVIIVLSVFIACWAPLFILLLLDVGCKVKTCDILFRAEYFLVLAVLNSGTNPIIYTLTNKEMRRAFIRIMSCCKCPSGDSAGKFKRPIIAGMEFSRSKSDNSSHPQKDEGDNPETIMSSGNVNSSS
This is one part of the list. The source made the active and inactive calls. No stated cut-off is given here; in the data, active means activation above about 21%; inactive means the rest.
measured_parameter: activation

>>> print(df.to_string())
                          compound         observed
0  CCOc1ccc(-c2nnc(-c3ccco3)o2)cc1  2.5% (inactive)

Prompt: Name the recorded activation of the item `Cc1cc(C)c(C#N)c(SCC(=O)NN2CC(=O)N(c3ccccc3F)CC2=O)n1` in your answer.
Completion: -4.8% (inactive)

Prompt: Name the recorded activation of the item CC1CCCC(NC(=O)COC(=O)[C@@H]2CC(O)CN2S(=O)(=O)c2ccc3c(c2)OCCO3)C1C (some centres not stated) in your answer.
Completion: -5.42% (inactive)

Prompt: Name the recorded activation of the item `Cc1noc(C)c1COC(=O)COc1ccc(-c2ccccc2)cc1` in your answer.
Completion: 0.9% (inactive)

Prompt: Name the recorded activation of the item `Cc1cc(C)nc(N(C#N)CC(=O)Nc2ccccc2)n1` in your answer.
Completion: 0.75% (inactive)

Prompt: Name the recorded activation of the item `Cc1ccc(NC(=O)Nc2ccccc2)c(Br)c1` in your answer.
Completion: 5.03% (inactive)

---

Catalogue of activation values
target: Sphingosine 1-phosphate receptor 1 (Homo sapiens); experiment: activation of human S1P1 receptor – cell-based, counter-screen for S1P4 agonist project (AID 1563); conditions: S1P1 agonist cell-based assay, at 4.98 µM, stronger effect = higher value;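 further: 0% = vehicle wells and 100% = reference agonist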
The other results are listed elsewhere or left out.
Numeric only. Scale: %

>>> print(df.to_string())
                                   molecule  observed
0  CCC(=O)/C(=C(/O)c1ccccc1)c1nc2ccccc2[nH]1     -4.01
1  N/C(=N\OC(=O)Cc1ccc([N+](=O)[O-])cc1)c1ccccn1     -7.04
2  COC(=O)CNC(=O)C(CCSC)NC(C)=O (stereo unspecified)     -8.17
3  CC(C)C(c1nnnn1C(C)(C)C)N1CCN(Cc2cccnc2)CC1 (stereo unspecified)     -9.51
4           O=C(CSc1nncn1-c1cccnc1)N1CCOCC1      2.75
5  C=CCn1c(SCn2nnc3ccccc3c2=O)nnc1-c1ccc(Cl)cc1     -1.97
6       CC(=O)Nc1ccccc1NC(=O)c1cc(C)cc(C)c1     -9.63
7      O=C(CSc1nnc(Nc2ccccc2)s1)Nc1cccnc1Cl     -2.54
8     CCCCCNC(=O)c1cccnc1SCC(=O)Nc1ccccc1OC      1.32
9  O=[N+]([O-])c1cccc(Nc2c3ccccc3nc3ccccc23)c1      11.6

Next molecule, please.
Prompt: Name the recorded activation of the item `O=C(COC(=O)Cc1ccc(F)cc1)Nc1cc(S(=O)(=O)N2CCOCC2)ccc1N1CCCC1` in your answer.
Completion: 5.34
